System: Escherichia coli
Assay: Antimicrobial activity against Escherichia coli
Type: functional

- MOLECULE: "CCC(C)CCCCC(=O)N[C@@H](CCNC(=O)C(N)CCCCNC(=O)OCc1ccccc1)C(=O)N[C@H](C(=O)N[C@@H](CCN)C(=O)N[C@H]1CCNC(=O)[C@H]([C@@H](C)O)NC(=O)[C@H](CCN)NC(=O)[C@H](CCN)NC(=O)[C@H](CC(C)C)NC(=O)[C@@H](Cc2ccccc2)NC(=O)[C@H](CCN)NC1=O)[C@@H](C)O (stereo partly drawn)"
  TARGET_UNDER_TEST: "Escherichia coli"
  MIC: "0.206 µg/mL"
- MOLECULE: "CC(C)C[C@@H]1NC(=O)[C@@H](CC(C)C)NC(=O)[C@H](CCN)NC(=O)[C@@H](NC(=O)[C@H](CCN)NC(=O)[C@@H](NC(=O)[C@H](CCN)NC(=O)Cc2ccc(-c3ccccc3)cc2)[C@@H](C)O)CCNC(=O)[C@H]([C@@H](C)O)NC(=O)[C@H](CCN)NC(=O)[C@H](CCN)NC1=O"
  TARGET_UNDER_TEST: "Escherichia coli"
  MIC: "1 µM"
- MOLECULE: "CCCCCCCC(=O)N[C@@H](CCN)C(=O)N[C@H](C(=O)N[C@@H](CCN)C(=O)N[C@H]1CCNC(=O)[C@H]([C@@H](C)O)NC(=O)[C@H](CCN)NC(=O)[C@H](CCNC(C)=O)NC(=O)[C@H](CC(C)C)NC(=O)[C@@H](Cc2ccccc2)NC(=O)[C@H](CCN)NC1=O)[C@@H](C)O"
  TARGET_UNDER_TEST: "Escherichia coli"
  MIC: "2 µM"

* * *

Items are presented alongside their recorded IC50.
Tested on: Pseudomonas aeruginosa
Experiment: Antimicrobial activity against Pseudomonas aeruginosa
Type: functional, organism-based

- COMPOUND: "CCC(C)CCCCC(=O)N[C@@H](CCNCc1c(COP(=O)(O)O)cnc(C)c1O)C(=O)N[C@@H](C(=O)N[C@@H](CCNCc1c(COP(=O)(O)O)cnc(C)c1O)C(=O)N[C@H]1CCNC(=O)[C@@H]([C@@H](C)O)NC(=O)[C@H](CCNCc2c(COP(=O)(O)O)cnc(C)c2O)NC(=O)[C@H](CCNCc2c(COP(=O)(O)O)cnc(C)c2O)NC(=O)[C@H](CC(C)C)NC(=O)[C@@H](Cc2ccccc2)NC(=O)[C@H](CCN)NC1=O)[C@@H](C)O (stereo partly drawn)"
  RESULT_UNITS: "mg/L"
  IC50: 10.7
- COMPOUND: "CCC(C)CCCCC(=O)N[C@@H](CCNC(=O)n1ccc2ccccc21)C(=O)N[C@@H](C(=O)N[C@@H](CCNC(=O)n1ccc2ccccc21)C(=O)N[C@H]1CCNC(=O)[C@@H]([C@@H](C)O)NC(=O)[C@H](CCNC(=O)n2ccc3ccccc32)NC(=O)[C@H](CCNC(=O)n2ccc3ccccc32)NC(=O)[C@H](CC(C)C)NC(=O)[C@@H](Cc2ccccc2)NC(=O)[C@H](CCN)NC1=O)[C@@H](C)O (stereo partly drawn)"
  RESULT_UNITS: "mg/L"
  IC50: 10.2
- COMPOUND: "CCC(C)CCCCC(=O)N[C@@H](CCNC=O)C(=O)N[C@H](C(=O)N[C@@H](CCN)C(=O)N[C@H]1CCNC(=O)[C@H]([C@@H](C)O)NC(=O)[C@H](CCN)NC(=O)[C@H](CCN)NC(=O)[C@H](CC(C)C)NC(=O)[C@@H](Cc2ccccc2)NC(=O)[C@H](CCN)NC1=O)[C@@H](C)O (stereo partly drawn)"
  RESULT_UNITS: "mg/L"
  IC50: 7.6

This collection of values is drawn from ChEMBL document CHEMBL1156251.
